system: Plasmodium berghei; test: Screen against P. berghei liver stage (PbLuc), transformed with Luciferase, at 2uM; type: functional, HepG2; details: tested at 2 uM
About 2,700 (4%) of roughly 68,000 compounds showed an effect of 50% or more. The entries come from a sample that favours strong results as a whole.
Labelling field: enter 1 (yes) if recorded INHIBITION is less than 50%. Enter 0 (no) if it equals or exceeds that cut-off.

{"columns": ["molecule", "answer-label"],
 "data": [
  ["Cc1ccc(CN2CCc3ncnc(-c4ccncc4)c3CC2)o1", "0 (no)"],
  ["Cn1cnc(S(=O)(=O)NCC2(O)CCc3ccccc3C2)c1 (stereo not drawn)", "0 (no)"],
  ["O=C(Cc1ccsc1)N1CCN(CCOc2ccccc2)CC1", "1 (yes)"],
  ["CCn1ncc2c1CCCC2NCc1ccc(OC)c(F)c1 (stereo not drawn)", "0 (no)"],
  ["CCn1ncc2c1CCCC2NCc1ccc(OC)c(C)c1 (stereo not drawn)", "1 (yes)"],
  ["Cn1cnc(S(=O)(=O)NCC2(O)CCc3ccccc32)c1 (stereo not drawn)", "1 (yes)"],
  ["CCn1ncc2c1CCCC2NCc1cc(C)ccc1OC (stereo not drawn)", "1 (yes)"],
  ["CC(=O)c1cc(CC(=O)N2CCN(CCOc3ccccc3)CC2)cs1", "1 (yes)"]
]}

====

test system: Plasmodium berghei; assay: Screen against P. berghei liver stage (PbLuc), transformed with Luciferase, at 2uM; format: functional, HepG2; conditions: tested at 2 uM
Out of some 68,000 compounds screened, about 2,700 (4%) showed an effect of 50% or more. For the sample, strong results were picked, then their nearest neighbours and some compounds at random.
measurement-label: INHIBITION (%)

{"columns": ["compound", "system-name", "readout-unit", "value-measured"],
 "data": [
  ["CC(C)CN1CCc2[nH]cnc2C12CCN(C(=O)c1ccnn1C)CC2", "Plasmodium berghei", "%", 29.19],
  ["Cc1ocnc1C(=O)N1CCC2(CC1)c1nc[nH]c1CCN2CC(C)C", "Plasmodium berghei", "%", 52.83],
  ["Cc1ncc(-c2ccnc(SCCN(C)C)n2)c(-c2ccco2)n1", "Plasmodium berghei", "%", 8.77],
  ["CC1CCN(S(=O)(=O)N2CCC(Oc3cnccn3)CC2)CC1", "Plasmodium berghei", "%", 52.82],
  ["Cc1ccc(CNC(=O)NC2CCN(CC(F)F)CC2)cc1", "Plasmodium berghei", "%", -5.19],
  ["O=C([C@H]1C[C@@H]2[C@@H](C1)OCCN2CC1CC1)N1CCCC1", "Plasmodium berghei", "%", -1.29],
  ["CCC[C@H]1CN(C(=O)CCn2ccccc2=O)C[C@@H]1NS(C)(=O)=O", "Plasmodium berghei", "%", 25.9],
  ["CNC(=O)[C@H]1C[C@H]2OCC[C@H]2N(CC2CCOCC2)C1", "Plasmodium berghei", "%", -14.24],
  ["Cc1ccc(CN2Cc3ccnn3CC(COCc3cccnc3)C2)o1 (configuration not stated)", "Plasmodium berghei", "%", 49.25],
  ["NC(=O)C1CCN(CC(=O)N(Cc2ccccc2)Cc2nccs2)CC1", "Plasmodium berghei", "%", 26.93],
  ["COc1ccc(C)cc1NC(=O)Cn1nc(C)c(C#N)c1N", "Plasmodium berghei", "%", 5.32],
  ["N#Cc1ccc(CNC(=O)NC2CCN(CC(F)F)CC2)cc1", "Plasmodium berghei", "%", -39.58],
  ["c1ccc(COCC2CN(Cc3ccsc3)Cc3nccn3C2)nc1 (configuration not stated)", "Plasmodium berghei", "%", 59.88],
  ["CN1CC2(CCN(C(=O)CCc3nc4cccnc4n3C)C2)OC1=O (configuration not stated)", "Plasmodium berghei", "%", -31.03],
  ["c1cncc(COCC2CN(Cc3ccco3)Cc3ccnn3C2)c1 (configuration not stated)", "Plasmodium berghei", "%", 1.22],
  ["O=C(NCc1cccs1)[C@H]1CC[C@@H]2[C@@H](CCN2c2ncccn2)O1", "Plasmodium berghei", "%", -23.39],
  ["C[C@H](c1ccc(F)cc1)n1c(C2CCC2)n[nH]c1=O", "Plasmodium berghei", "%", 38.67],
  ["O=C(NCCc1cc(N2CCOCC2)nc(NC2CC2)n1)C1CC1", "Plasmodium berghei", "%", 38.45],
  ["Cc1c(C2=NS(=O)(=O)N(C)C(C(=O)Nc3ccc(Br)cc3)=C2)cnn1C", "Plasmodium berghei", "%", 22.84],
  ["COc1ccccc1OCCCc1cncc(C(N)=O)c1", "Plasmodium berghei", "%", -69.92],
  ["Cc1cc(C(=O)N2CCC3(CC2)c2nc[nH]c2CCN3CC(C)C)no1", "Plasmodium berghei", "%", 37.63],
  ["c1cncc(OCC2CN(Cc3ccsc3)Cc3nccn3C2)c1 (configuration not stated)", "Plasmodium berghei", "%", 45.82],
  ["c1cncc(COCC2CN(Cc3ccncc3)Cc3ccnn3C2)c1 (configuration not stated)", "Plasmodium berghei", "%", -34.65],
  ["CCOCC(=O)N1C[C@H]2CCC[C@@]2(COC)C1", "Plasmodium berghei", "%", 42.4],
  ["CN1CCC(c2n[nH]c(=O)n2-c2cccc(Cl)c2)CC1", "Plasmodium berghei", "%", -8.16],
  ["O=C([C@H]1C[C@H]2OCC[C@H]2N(CC2CC2)C1)N1CCCCO1", "Plasmodium berghei", "%", -11.4],
  ["Cc1ccc(N2C(=O)N[C@@H]3CCN(C(=O)C4CCCC4)[C@@H]3C2=O)cc1", "Plasmodium berghei", "%", -28.91]
]}

====

# INHIBITION per record follows
tested on: Plasmodium berghei; experiment: Screen against P. berghei liver stage (PbLuc), transformed with Luciferase, at 2uM; format: functional, HepG2; conditions: tested at 2 uM
Screen size: about 68,000 compounds; about 2,700 (4%) showed an effect of 50% or more. Only a selection was taken, and strong results are over-represented in it overall.

{"columns": ["molecule", "INHIBITION, %"],
 "data": [
  ["CC(C)CCc1nc(CN2CCOC(Cn3cncn3)C2)cs1 (stereo not given)", 7.13],
  ["COCC(=O)NC[C@H]1C[C@@H]2CCN1C[C@@H]2c1cc(-c2cccs2)nn1C", 27.65],
  ["O=C(CCSc1ccccc1F)NCc1cccnc1", -67.38],
  ["CCN1CCN(S(=O)(=O)c2cc(C)c(Cl)cc2Cl)CC1", 26.09],
  ["O=C(c1ccno1)N1CCO[C@@H]2CC(COCc3ccccn3)C[C@H]21 (stereo not given in full)", 43.24],
  ["c1csc(-c2nc(CN3CCOC(Cn4cccn4)C3)co2)c1 (stereo not given)", -25.44],
  ["CN(C)C(=O)C1CN(Cc2ccccn2)CCN(S(C)(=O)=O)C1 (stereo not given)", 25.72],
  ["CN(Cc1ccsc1)C(=O)CN1CCOC(Cn2cccn2)C1 (stereo not given)", 62.46],
  ["Fc1cccc(-c2nc(CN3CCOC(Cn4cncn4)C3)co2)c1 (stereo not given)", 16.51],
  ["COCCN1C(=O)CCC12CCC(NCc1nccs1)CC2 (stereo not given)", 75.66],
  ["CCOCc1cncc2c1CCN(S(=O)(=O)c1ccccc1)C2", -18.7],
  ["c1cnn(CC2CN(Cc3ccc(-n4ccnc4)cc3)CCO2)c1 (stereo not given)", 53.03],
  ["COCCNC(=O)NC1(c2ccccc2F)CC1", 54.49],
  ["O=C(CCC(F)(F)F)N1CCCC(c2ncc[nH]2)C1 (stereo not given)", -1.64],
  ["O=C(CN1CCCC(c2ncc[nH]2)C1)NCC(F)(F)F (stereo not given)", 51.23],
  ["Cn1nc(-c2cccs2)cc1[C@H]1CN2CC[C@H]1C[C@@H]2CNS(C)(=O)=O", 40.83],
  ["CC(=O)N(Cc1ncc(C)o1)C1CCN(CCc2cnn(C)c2)C1 (stereo not given)", 9.83],
  ["CC[C@@H]1N(Cc2ccc(OC)cc2)CCC[C@]12CCC(=O)N2CCOC", 25.75],
  ["c1ccc(-c2nc(CN3CCOC(Cn4cccn4)C3)co2)cc1 (stereo not given)", 62.13],
  ["CC(=O)NCCC1CCCCN1S(=O)(=O)c1ccc2ccccc2c1 (stereo not given)", 29.89],
  ["O=C(NCCSc1ccccc1F)NCc1cccnc1", 68.04],
  ["CCOCC1CN(c2ccc(C)nn2)Cc2cnn(CC)c21 (stereo not given)", -3.65],
  ["CCCN1CCC[C@]2(CCC(=O)N2Cc2ccncc2)[C@H]1CC", 32.59],
  ["CCNC(=O)NC[C@H]1C[C@@H]2CCN1C[C@@H]2c1cc(-c2cccs2)nn1C", 60.6],
  ["CCCC(NC(=O)c1cc(C)ccc1O)c1nnn[nH]1 (stereo not given)", -7.9],
  ["CN(C)C(=O)[C@H]1C[C@H]2OCC[C@H]2N(Cc2ccc(F)cc2)C1", 35.38],
  ["c1ccc(-c2nc(CN3CCOC(Cn4cncn4)C3)cs2)cc1 (stereo not given)", 31.57],
  ["COCCN1C(=O)CCC12CCC(NCc1cccnc1OC)CC2 (stereo not given)", 12.95],
  ["c1cn(-c2ccc(CN3CCOC(Cn4cncn4)C3)cc2)cn1 (stereo not given)", 40.88],
  ["CN1C(=O)CCC12CCC(NC(=O)NCc1cccnc1)CC2 (stereo not given)", -14.64],
  ["CN1C(=O)CCC12CCC(NCc1ccsc1)CC2 (stereo not given)", 51.81],
  ["CC1CCN(C(=O)c2cccc3ncccc23)CC1", -29.11],
  ["c1csc(-c2nc(CN3CCOC(Cn4cncn4)C3)cs2)c1 (stereo not given)", 66.97],
  ["CC(=O)NCCC1CCCCN1S(=O)(=O)c1cccc(F)c1 (stereo not given)", 50.91],
  ["Cc1ccc(-c2nc(CN3CCOC(Cn4cccn4)C3)co2)cc1 (stereo not given)", 1.02],
  ["Cc1cc(S(=O)(=O)N2CCC(N3CCC(O)C3)CC2)c(Cl)cc1Cl (stereo not given)", 55.73],
  ["CN(Cc1ccsc1)C(=O)CN1CCOC(Cn2cncn2)C1 (stereo not given)", 46.09],
  ["Cc1noc(C)c1CN1CCN(C(C)c2nc(C3CC3)no2)CC1 (stereo not given)", 33.22],
  ["CC(=O)NCCC1CCCCN1S(=O)(=O)c1cccc(Cl)c1 (stereo not given)", -12.13],
  ["COCCNC(=O)C1(c2ccccc2C)CCOCC1", -88.54]
]}

All values here come from ChEMBL document CHEMBL4513216.
